Reference source: ChEMBL document CHEMBL3988442

# Tested system: Tyrosyl-tRNA synthetase, putative (Trypanosoma cruzi (strain CL Brener)) (UniProt Q4DSP6)
# Sequence (Q4DSP6 as listed by the source): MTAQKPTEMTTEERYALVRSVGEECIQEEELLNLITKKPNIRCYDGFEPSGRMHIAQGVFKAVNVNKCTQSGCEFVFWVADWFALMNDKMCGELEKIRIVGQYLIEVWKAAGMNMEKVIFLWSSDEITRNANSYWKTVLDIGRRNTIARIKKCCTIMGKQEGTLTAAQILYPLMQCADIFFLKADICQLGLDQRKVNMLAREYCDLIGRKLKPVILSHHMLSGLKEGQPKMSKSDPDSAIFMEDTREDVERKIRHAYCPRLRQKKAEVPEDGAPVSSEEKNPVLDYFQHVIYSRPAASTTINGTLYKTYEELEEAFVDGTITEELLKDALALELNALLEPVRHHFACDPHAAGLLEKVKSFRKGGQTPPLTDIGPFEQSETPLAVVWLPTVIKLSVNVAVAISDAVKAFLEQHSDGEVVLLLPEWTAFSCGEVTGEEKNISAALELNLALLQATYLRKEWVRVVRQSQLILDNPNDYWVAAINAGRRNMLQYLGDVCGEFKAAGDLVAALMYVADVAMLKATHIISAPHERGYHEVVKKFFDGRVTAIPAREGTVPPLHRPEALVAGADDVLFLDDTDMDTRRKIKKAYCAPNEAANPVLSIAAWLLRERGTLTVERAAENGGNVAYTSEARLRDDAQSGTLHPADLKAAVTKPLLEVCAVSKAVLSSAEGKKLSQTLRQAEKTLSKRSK
# Assay info: Trypanosoma cruzi tyrosyl tRNA synthetase (TcYRS) SOP
# Format: functional
# Parameters: scale not given: direction of the effect not stated beside the values
# Settings: 30 µM
Metric: Percent Effect (%)

>>> number("Cc1nc(C)n(CC2CCCN(CCCOc3ccccc3)C2)n1 (centres undefined)")
12.7
>>> number("NCCn1nc(C2CCN(Cc3ccc(Cl)c(Cl)c3)C2)c2nccnc21 (centres undefined)")
-1.3
>>> number("CCc1nc(NCC(=O)N2CCOCC2)c2c(n1)c(C)nn2CC")
5.13
>>> number("O=C(Nc1cccc(OCc2cccc(F)c2)c1)C1COCCO1 (centres undefined)")
-11.1
>>> number("O=C(Cc1ccccc1F)N1CCN(C(=O)c2ccoc2)CC1")
18.2
>>> number("CSCC[C@H](N)C(=O)NCc1cc2n(n1)CCCN(C1CCCCC1)C2")
12.8
>>> number("N#Cc1ccc(N2CCCN(C(=O)CC3CCCO3)CC2)cc1 (centres undefined)")
16.1
>>> number("Cc1cncc(C(=O)N2CCCCC2c2nc(C)cs2)c1 (centres undefined)")
21.9
>>> number("CC(=O)N(Cc1noc(C2CC2)n1)C1CCN(Cc2nccn2C)C1 (centres undefined)")
18.3
>>> number("COCCCN(CCOC)C(=O)Nc1ccc(C)cc1C")
-2.6
>>> number("Cc1cnn(CCC(=O)N2CCCN(c3cccnn3)CC2)c1")
5.06
>>> number("CC(=O)N(Cc1noc(C)n1)C1CCN(Cc2cc(C)on2)C1 (centres undefined)")
30.6
>>> number("Cc1cc(C)c2nc(CN3CCOC(CCO)C3)cc(O)c2c1 (centres undefined)")
14.6
>>> number("COc1cccc(OCCNCc2c(C)nn(C)c2N(C)C)c1")
19.5
